SYSTEM_NAME: Nociceptin receptor (Homo sapiens, UniProt P41146)
Sequence (P41146 whole entry): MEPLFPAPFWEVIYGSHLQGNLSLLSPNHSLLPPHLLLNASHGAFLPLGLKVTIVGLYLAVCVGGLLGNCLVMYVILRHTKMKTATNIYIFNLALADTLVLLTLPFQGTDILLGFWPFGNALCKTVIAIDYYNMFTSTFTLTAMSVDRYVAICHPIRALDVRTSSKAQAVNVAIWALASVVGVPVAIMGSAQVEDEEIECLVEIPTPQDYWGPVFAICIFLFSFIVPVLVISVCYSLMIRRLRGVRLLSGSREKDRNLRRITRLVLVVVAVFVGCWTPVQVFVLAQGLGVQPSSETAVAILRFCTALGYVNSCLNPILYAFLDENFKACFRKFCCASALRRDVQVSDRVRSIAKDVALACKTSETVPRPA
EXPERIMENTAL_PROTOCOL: Agonist potency against GTPgammaS binding in CHO cell membranes expressing the human NOP receptor (CHOhNOP)
Numbered stars: 1 amine (or outer) side, 2 acyl side, 3 side chain; on linkers, the order of the positions; unused ones are H or OH. Square brackets hold non-standard residues; d marks the D form. Peptide text beside a SMILES is read from it. X1 = N[C@@H](Cc1ccccc1)CN(CC(=O)[*:2])[*:1]; Phe(4-F) = N[C@@H](Cc1ccc(F)cc1)C(=O)O
Below is a list of entries, each paired with its recorded pEC50 value.
Schema: pEC50 number; meaning minus log10 of the concentration expressed in molar units.

MOLECULE: CC(C)C[C@H](NC(=O)[C@H](CCCCN)NC(=O)[C@H](CCCN=C(N)N)NC(=O)[C@H](C)NC(=O)[C@H](CO)NC(=O)[C@H](CCCCN)NC(=O)[C@H](CCCN=C(N)N)NC(=O)[C@H](C)NC(=O)CNC(=O)[C@@H](NC(=O)[C@H](Cc1ccc(F)cc1)NC(=O)CNC(=O)CNC[C@@H](N)Cc1ccccc1)[C@@H](C)O)C(=O)N[C@@H](C)C(=O)N[C@@H](CC(N)=O)C(=O)N[C@@H](CCC(N)=O)C(N)=O (H-[X1]G[Phe(4-F)]TGARKSARKLANQ-NH2)
pEC50: 9.09

MOLECULE: CC(C)C[C@H](NC(=O)[C@H](CCCCN)NC(=O)[C@H](CCCN=C(N)N)NC(=O)[C@H](C)NC(=O)[C@H](CO)NC(=O)[C@H](CCCCN)NC(=O)[C@H](CCCN=C(N)N)NC(=O)[C@H](C)NC(=O)CNC(=O)[C@@H](NC(=O)[C@H](Cc1ccccc1)NC(=O)CNC(=O)CNC[C@@H](N)Cc1ccccc1)[C@@H](C)O)C(=O)N[C@@H](C)C(=O)N[C@@H](CC(N)=O)C(=O)N[C@@H](CCC(N)=O)C(N)=O (H-[X1]GFTGARKSARKLANQ-NH2)
pEC50: 8.28

MOLECULE: C[C@H](NC(=O)CNC(=O)[C@@H](NC(=O)[C@H](Cc1ccc(F)cc1)NC(=O)CNC(=O)CNC[C@@H](N)Cc1ccccc1)[C@@H](C)O)C(=O)N[C@@H](CCCN=C(N)N)C(=O)N[C@@H](CCCCN)C(=O)N[C@@H](CO)C(=O)N[C@@H](C)C(=O)N[C@@H](CCCN=C(N)N)C(=O)N[C@@H](CCCCN)C(=O)N[C@@H](CCCN=C(N)N)C(=O)N[C@@H](CCCCN)C(=O)N[C@@H](CC(N)=O)C(=O)N[C@@H](CCC(N)=O)C(N)=O (H-[X1]G[Phe(4-F)]TGARKSARKRKNQ-NH2)
pEC50: 9.68

Proceeding to the next molecule to report its pEC50.
State the recorded pEC50 for this entry: C[C@H](NC(=O)CNC(=O)[C@@H](NC(=O)[C@H](Cc1ccccc1)NC(=O)CNC(=O)CNC[C@@H](N)Cc1ccccc1)[C@@H](C)O)C(=O)N[C@@H](CCCN=C(N)N)C(=O)N[C@@H](CCCCN)C(=O)N[C@@H](CO)C(=O)N[C@@H](C)C(=O)N[C@@H](CCCN=C(N)N)C(=O)N[C@@H](CCCCN)C(=O)N[C@@H](CCCN=C(N)N)C(=O)N[C@@H](CCCCN)C(=O)N[C@@H](CC(N)=O)C(=O)N[C@@H](CCC(N)=O)C(N)=O (H-[X1]GFTGARKSARKRKNQ-NH2) 9.03

Origin of values: ChEMBL document CHEMBL1142699
